Hello, the source for this data is patent US20150239980A1, in case you need it.

STUDY_TARGET: T1, recombinant hMCAM-His (human, UniProt P43121 24-559)
T1 construct: not shown: His tag
T1 chain: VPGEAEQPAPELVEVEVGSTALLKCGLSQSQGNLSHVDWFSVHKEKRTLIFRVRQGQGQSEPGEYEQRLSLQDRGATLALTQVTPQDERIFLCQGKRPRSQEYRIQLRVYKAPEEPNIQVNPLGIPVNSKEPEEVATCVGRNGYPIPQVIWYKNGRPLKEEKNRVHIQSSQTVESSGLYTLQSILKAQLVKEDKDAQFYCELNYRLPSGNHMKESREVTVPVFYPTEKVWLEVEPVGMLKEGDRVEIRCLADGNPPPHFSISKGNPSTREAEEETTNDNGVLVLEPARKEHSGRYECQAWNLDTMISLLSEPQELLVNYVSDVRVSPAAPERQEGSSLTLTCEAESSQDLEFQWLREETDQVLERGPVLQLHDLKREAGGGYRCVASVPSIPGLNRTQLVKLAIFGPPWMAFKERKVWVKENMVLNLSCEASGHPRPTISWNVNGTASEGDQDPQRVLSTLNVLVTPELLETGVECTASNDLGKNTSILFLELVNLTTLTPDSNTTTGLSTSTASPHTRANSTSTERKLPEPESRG
EXPERIMENT_NOTES: competitive ELISA on hMCAM-His, competitor biotinylated rodent or chimeric 2107; vs rodent 2107
MEASURED_PARAMETER: fold over rodent (competitive ELISA) (fold)
Could you give me the number in fold? Just the number is fine.

### Prompt // returns reported fold over rodent (competitive ELISA) for input h2107_VH1 + h2107_VL3 (antibody, human IgG1, V domains shown) VH: QVTLKESGPVLVKPTETLTLTCTVSGFSLTSNGVSWVRQPPGKALEWIAAISSGGSTYYNSAFKSRLTISRDTSKSQVVLTMTNMDPVDTATYYCARHRPFYFDYWGQGTLVTVSS VL: DIQMTQSPSSLSASVGDRVTINCKGSQNIYKSLAWFQQKPGKVPKLLIYDANSLQTGIPSRFSGSGSGTDFTLTISSLQPEDVATYYCQQYYSGYTFGGGTKVEIK
### Response 2.3

### Prompt // returns reported fold over rodent (competitive ELISA) for input h2107_VH5 + h2107_VL2 (antibody, human IgG1, V domains shown) VH: QVTLKESGPVLVKPTETLTLTCTVSGFSLTSQGVSWVRQPPGKALEWIAAISSGGSTYYNSAFKSRLTISPDTSKSQVVLTMTNMDPVDTATYYCARHRPFYFDYWGQGTLVTVSS VL: DIQMTQSPSSLSASVGDRVTITCKGSQNIYKSLAWFQLKPGKVPKLLIYDANSLQTGIPSRFSGSGSGTDFTLTISSLQPEDVATYYCQQYYSGYTFGGGTKVEIK
### Response 1.3
